Value source: patent US20060069132A1

# System: woolly cupgrass
# METHOD: Test C pre-/postemergence herbicide test
# Type: in vivo, Eriochloa villosa
# CONDITION_DETAILS: Postemergence; 250 g ai/ha; scale 0 to 100, 0 no effect, 100 complete control

>  <INPUT_SMILES>
CCCCOC(=O)c1cccc(NC(=O)c2cc(C(C)(C)C)nn2CC)c1

>  <Plant response rating, Cupgrass, Woolly>
80

$$$$
>  <INPUT_SMILES>
CCn1nc(C(C)(C)C)cc1C(=O)Nc1cccc(OC(F)F)c1

>  <Plant response rating, Cupgrass, Woolly>
10

$$$$
>  <INPUT_SMILES>
C=Cn1nc(C(C)(C)C)cc1C(=O)Nc1cccc(C(C)=NO)c1

>  <Plant response rating, Cupgrass, Woolly>
70

$$$$
>  <INPUT_SMILES>
C=CCNC(=O)c1cccc(NC(=O)c2cc(C(C)(C)C)nn2CC)c1

>  <Plant response rating, Cupgrass, Woolly>
70

$$$$

====

# Test system: johnsongrass
# METHOD: Test C pre-/postemergence herbicide test
# Format: in vivo, Sorghum halepense
# CONDITION_DETAILS: 62 g ai/ha; preemergence
In this section we review reported Plant response rating (0 = no effect, 100 = complete control), Johnsongrass values for a set of compounds.
PROPERTY_MEASURED: Plant response rating (0 = no effect, 100 = complete control), Johnsongrass

>  <INPUT_SMILES>
C#CCNC(=O)c1cccc(NC(=O)c2cc(C(C)(C)C)nn2CC)c1

>  <OBSERVED_RESULT>
20

$$$$
>  <INPUT_SMILES>
CC(=NO)c1cccc(NC(=O)c2cc(C(C)(C)C)nn2CCF)c1

>  <OBSERVED_RESULT>
70

$$$$
>  <INPUT_SMILES>
C=CCNC(=O)c1cccc(NC(=O)c2cc(C(C)(C)C)nn2CC)c1

>  <OBSERVED_RESULT>
50

$$$$
>  <INPUT_SMILES>
C=Cn1nc(C(C)(C)C)cc1C(=O)Nc1cccc(C(C)=NO)c1

>  <OBSERVED_RESULT>
20

$$$$

====

In this section we review reported Foxtail, Giant plant response rating values for a set of compounds.
# System: giant foxtail
# METHOD: Test B pre-/postemergence herbicide test
# Type: in vivo, Setaria faberi
# CONDITION_DETAILS: postemergence, 500 g ai/ha; visual rating, scale 0 (no effect) to 100 (complete control)

>  <INPUT_SMILES>
CCc1nc(C(C)(C)C)sc1C(=O)Nc1cc(C(=O)N(CC)CC)ccc1F

>  <Foxtail, Giant plant response rating>
20

$$$$
>  <INPUT_SMILES>
CCn1nc(C(C)(C)C)cc1C(=O)Nc1cccc(C(N)=O)n1

>  <Foxtail, Giant plant response rating>
30

$$$$
>  <INPUT_SMILES>
CCn1nc(C(C)(C)C)cc1C(=O)Nc1cccc(SC)c1

>  <Foxtail, Giant plant response rating>
30

$$$$
>  <INPUT_SMILES>
CC(=NO)c1cccc(NC(=O)c2sc(C(C)(C)C)nc2C)c1

>  <Foxtail, Giant plant response rating>
20

$$$$
>  <INPUT_SMILES>
CCNC(=O)c1cccc(NC(=O)c2cn(C(C)(C)C)nc2CC)c1

>  <Foxtail, Giant plant response rating>
20

$$$$
>  <INPUT_SMILES>
CCc1nc(C(C)(C)C)sc1C(=O)Nc1cccc(C(=O)NCC(F)(F)F)c1

>  <Foxtail, Giant plant response rating>
20

$$$$
>  <INPUT_SMILES>
CCCCNS(=O)(=O)c1cccc(NC(=O)c2cc(C(C)(C)C)nn2C)c1

>  <Foxtail, Giant plant response rating>
0

$$$$
>  <INPUT_SMILES>
CCNC(=O)c1cccc(NC(=O)c2cn(C(C)(C)C)nc2C)c1

>  <Foxtail, Giant plant response rating>
30

$$$$
>  <INPUT_SMILES>
C=CCNC(=O)c1ccc(F)c(NC(=O)c2sc(CC)nc2C(C)(C)C)c1

>  <Foxtail, Giant plant response rating>
20

$$$$

====

# Test system: giant foxtail
# METHOD: Test B pre-/postemergence herbicide test
# Format: in vivo, Setaria faberi
# CONDITION_DETAILS: Preemergence, 500 g ai/ha; scale 0 to 100
In this section we review reported Foxtail, Giant plant response rating values for a set of compounds.
PROPERTY_MEASURED: Foxtail, Giant plant response rating

>  <INPUT_SMILES>
CCCCOC(=O)c1cccc(NC(=O)c2cc(C(C)(C)C)nn2CC)c1

>  <OBSERVED_RESULT>
0

$$$$
>  <INPUT_SMILES>
CCNC(=O)c1cc(NC(=O)c2cc(C(C)(C)C)nn2CC)ccc1F

>  <OBSERVED_RESULT>
100

$$$$
>  <INPUT_SMILES>
C#CCn1nc(C(C)(C)C)cc1C(=O)Nc1cccc(C(=O)NCC)c1

>  <OBSERVED_RESULT>
100

$$$$
>  <INPUT_SMILES>
C#CCNC(=O)c1cccc(NC(=O)c2cc(C(C)(C)C)nn2CC)c1

>  <OBSERVED_RESULT>
90

$$$$

====

# System: morningglory
# METHOD: Test A pre-/postemergence herbicide test
# Type: in vivo, Ipomoea spp.
# CONDITION_DETAILS: Preemergence, 2000 g ai/ha; visual rating, 0 to 100 scale (0 no effect, 100 complete control)
PROPERTY_MEASURED: Morningglory plant response rating

>  <COMPOUND>
CCCCNS(=O)(=O)c1cccc(NC(=O)c2cc(C(C)(C)C)nn2C)c1 [Compound 125]

>  <PROPERTY_MEASURED>
Morningglory plant response rating

>  <OBSERVED_RESULT>
0

$$$$
>  <COMPOUND>
CCc1nn(C(C)(C)C)cc1C(=O)Nc1cc(C(=O)N(CC)CC)ccc1F [Compound 223]

>  <PROPERTY_MEASURED>
Morningglory plant response rating

>  <OBSERVED_RESULT>
55

$$$$
>  <COMPOUND>
CC(=NO)c1cc(NC(=O)c2cc(C(C)(C)C)nn2C)ccc1F [Compound 109]

>  <PROPERTY_MEASURED>
Morningglory plant response rating

>  <OBSERVED_RESULT>
45

$$$$
>  <COMPOUND>
CCn1nc(C(C)(C)C)cc1C(=O)Nc1cc(C(=O)N(C)C)c(F)cc1F [Compound 270]

>  <PROPERTY_MEASURED>
Morningglory plant response rating

>  <OBSERVED_RESULT>
30

$$$$
>  <COMPOUND>
CCNC(=O)c1cccc(NC(=O)c2sc(C(C)(C)C)nc2CC)n1 [Compound 213]

>  <PROPERTY_MEASURED>
Morningglory plant response rating

>  <OBSERVED_RESULT>
60

$$$$
>  <COMPOUND>
CCn1nc(C(C)(C)C)cc1C(=O)Nc1nc(OC)cc(OC)n1 [Compound 166]

>  <PROPERTY_MEASURED>
Morningglory plant response rating

>  <OBSERVED_RESULT>
5

$$$$
>  <COMPOUND>
C=CCNC(=O)c1cccc(NC(=O)c2sc(C(C)(C)C)nc2CC)c1 [Compound 207]

>  <PROPERTY_MEASURED>
Morningglory plant response rating

>  <OBSERVED_RESULT>
85

$$$$
>  <COMPOUND>
CCn1nc(C(C)(C)C)cc1C(=O)Nc1cccc(SC(F)(F)F)c1 [Compound 130]

>  <PROPERTY_MEASURED>
Morningglory plant response rating

>  <OBSERVED_RESULT>
15

$$$$
>  <COMPOUND>
CCn1nc(C(C)(C)C)cc1C(=O)Nc1cc(OC)ccc1F [Compound 347]

>  <PROPERTY_MEASURED>
Morningglory plant response rating

>  <OBSERVED_RESULT>
0

$$$$
>  <COMPOUND>
CCn1nc(C(C)(C)C)cc1C(=O)Nc1cccc(C(=O)OC(C)(C)C)c1 [Compound 98]

>  <PROPERTY_MEASURED>
Morningglory plant response rating

>  <OBSERVED_RESULT>
0

$$$$
>  <COMPOUND>
CCOC(=O)c1cncc(NC(=O)c2cc(C(C)(C)C)nn2CC)c1 [Compound 255]

>  <PROPERTY_MEASURED>
Morningglory plant response rating

>  <OBSERVED_RESULT>
70

$$$$

====

# System: soybean
# METHOD: Test C pre-/postemergence herbicide test
# Type: in vivo, Glycine max
# CONDITION_DETAILS: Preemergence, 500 g ai/ha; scale 0 to 100, 0 no effect, 100 complete control

>  <INPUT_SMILES>
CCn1nc(C(C)(C)C)cc1C(=O)Nc1cccc(C(N)=O)n1

>  <Soybean plant response rating>
100

$$$$
>  <INPUT_SMILES>
CCNC(=O)c1cc(NC(=O)c2cc(C(C)(C)C)nn2CC)ccc1F

>  <Soybean plant response rating>
40

$$$$
>  <INPUT_SMILES>
CC(=NO)c1cccc(NC(=O)c2sc(C(C)(C)C)nc2C)c1

>  <Soybean plant response rating>
0

$$$$
>  <INPUT_SMILES>
CCOC(=O)c1cccc(NC(=O)c2cc(C(C)(C)C)nn2CC)c1C

>  <Soybean plant response rating>
10

$$$$
>  <INPUT_SMILES>
CC(=NO)c1cccc(NC(=O)c2cc(C(C)(C)C)nn2CCF)c1

>  <Soybean plant response rating>
0

$$$$
>  <INPUT_SMILES>
CCn1nc(C(C)(C)C)cc1C(=O)Nc1cccc2c1CN(C)C2=O

>  <Soybean plant response rating>
20

$$$$
>  <INPUT_SMILES>
CCCN1CCc2c(NC(=O)c3cc(C(C)(C)C)nn3CC)cccc2C1=O

>  <Soybean plant response rating>
20

$$$$
>  <INPUT_SMILES>
CCn1nc(C(C)(C)C)cc1C(=O)Nc1cccc2c1CCN(C1CC1)C2=O

>  <Soybean plant response rating>
60

$$$$
>  <INPUT_SMILES>
CCc1nn(C(C)(C)C)cc1C(=O)Nc1cccc(C(=O)N(CC)CC)c1

>  <Soybean plant response rating>
15

$$$$
>  <INPUT_SMILES>
C#CCn1nc(C(C)(C)C)cc1C(=O)Nc1cccc(C(=O)NCC)c1

>  <Soybean plant response rating>
0

$$$$
